These entries and their values trace back to patent US20240218022A1.

# Target: mouse VISTA (mVISTA) (Mus musculus)
# Construct: expressed in transfected cells; host or cells: Human embryonic kidney 293T cells
# Sequence (Q9D659 33-308): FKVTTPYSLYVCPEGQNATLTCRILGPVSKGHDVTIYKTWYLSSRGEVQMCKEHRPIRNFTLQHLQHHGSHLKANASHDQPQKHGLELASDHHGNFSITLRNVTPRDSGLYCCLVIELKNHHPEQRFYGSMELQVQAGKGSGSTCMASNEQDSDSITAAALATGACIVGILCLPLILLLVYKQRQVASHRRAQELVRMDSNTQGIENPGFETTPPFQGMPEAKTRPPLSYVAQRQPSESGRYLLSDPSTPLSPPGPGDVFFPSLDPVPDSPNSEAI
# Test Name: Cell-Based Binding High-Content Assay For mVISTA (HC CBA mVISTA)
# Assay Setup: read-out: HC CBA mVISTA IC50
Positions of bridges follow the written chain, without caps; N, C: chain ends. Non-standard residues stand in square brackets, D forms with d. Residues, ends and D or L forms follow the SMILES beside them. Phe(3-Cl) = N[C@@H](Cc1cccc(Cl)c1)C(=O)O; Ahp(2) = CCCCC[C@H](N)C(=O)O; NMeNle = CCCC[C@H](NC)C(=O)O; NHexGly = CCCCCCNCC(=O)O
Measured Metric: IC50 (nM)
Answers are plain numbers, in nM.

{"columns": ["Compound", "Scale Unit", "IC50"],
 "data": [
  ["CCCCCCN1CC(=O)N[C@@H](Cc2ccc(O)cc2)C(=O)N[C@@H](CC(C)C)C(=O)N[C@@H](CC(N)=O)C(=O)N[C@@H](CCCNC(=N)N)C(=O)N(C)[C@@H](CCCC)C(=O)N[C@@H](CCCCC)C(=O)N2CCC[C@H]2C(=O)N[C@@H](C(C)C)C(=O)N[C@@H](CO)C(=O)N[C@H](C(=O)NCC(N)=O)CSCC(=O)N[C@@H](Cc2cccc(Cl)c2)C(=O)N[C@@H](Cc2ccc(O)cc2)C(=O)N[C@@H](CC(=O)O)C1=O [compound 1208] ({CH2CO}-[Phe(3-Cl)]YD[NHexGly]YLNR[NMeNle][Ahp(2)]PVSCG-NH2; thioether N-14)", "nM", 27.7]
]}

We next turn to a different compound, shown below.
# lookup: IC50 of CCCCCCN1CC(=O)N[C@@H](Cc2ccc(O)cc2)C(=O)N[C@@H](CC(C)C)C(=O)NCC(=O)N[C@@H](CCCNC(=N)N)C(=O)N[C@@H](CC(C)C)C(=O)N[C@@H](CCCCC)C(=O)N2CCC[C@H]2C(=O)N[C@@H](C(C)C)C(=O)N2CCC[C@H]2C(=O)N[C@H](C(=O)NCC(=O)O)CSCC(=O)N[C@@H](Cc2ccccc2)C(=O)N[C@@H](Cc2ccc(O)cc2)C(=O)N[C@@H](CC(=O)O)C1=O [compound 1124] ({CH2CO}-FYD[NHexGly]YLGRL[Ahp(2)]PVPCG-OH; thioether N-14) 32.3

====

# Target: mouse VISTA (mVISTA) (Mus musculus)
# Construct: expressed in transfected cells; host or cells: Human embryonic kidney 293T cells
# Test Name: Cell-Based Binding High-Content Assay For mVISTA (HC CBA mVISTA)
# Assay Setup: cell-based binding high-content assay, mVISTA; the 15th table; read-out: HC CBA mVISTA IC50
Positions of bridges follow the written chain, without caps; N, C: chain ends. Non-standard residues stand in square brackets, D forms with d. Residues, ends and D or L forms follow the SMILES beside them. 2Nal = N[C@@H](Cc1ccc2ccccc2c1)C(=O)O; Ahp(2) = CCCCC[C@H](N)C(=O)O; NMeNle = CCCC[C@H](NC)C(=O)O; NMeV = CN[C@H](C(=O)O)C(C)C; NMeS = CN[C@@H](CO)C(=O)O; NHexGly = CCCCCCNCC(=O)O; Nle = CCCC[C@H](N)C(=O)O
Provide the recorded IC50 for the entries that follow.
One number for each entry, in nM.

{"columns": ["Molecule", "Scale Unit", "IC50"],
 "data": [
  ["CCCCCCN1CC(=O)N[C@@H](Cc2ccc(O)cc2)C(=O)N[C@@H](CCCC)C(=O)N[C@@H](CC(N)=O)C(=O)N[C@@H](CCCNC(=N)N)C(=O)N(C)[C@@H](C(C)C)C(=O)N[C@@H](CCCCC)C(=O)N2CCC[C@H]2C(=O)N[C@@H](C(C)C)C(=O)N[C@@H](CC(=O)O)C(=O)N[C@H](C(=O)NCC(=O)O)CSCC(=O)N[C@@H](Cc2ccc3ccccc3c2)C(=O)N[C@@H](Cc2c[nH]c3ccccc23)C(=O)N[C@@H](CC(=O)O)C1=O [compound 1260] ({CH2CO}-[2Nal]WD[NHexGly]Y[Nle]NR[NMeV][Ahp(2)]PVDCG-OH; thioether N-14)", "nM", 9.4],
  ["CCCCCCN1CC(=O)N[C@@H](Cc2ccc(O)cc2)C(=O)N[C@@H](CCCC)C(=O)N[C@@H](CC(N)=O)C(=O)N[C@@H](CCCNC(=N)N)C(=O)N(C)[C@@H](CCCC)C(=O)N[C@@H](CCCCC)C(=O)N2CCC[C@H]2C(=O)N[C@@H](C(C)C)C(=O)N[C@@H](CC(=O)O)C(=O)N[C@H](C(=O)NCC(=O)O)CSCC(=O)N[C@@H](Cc2ccc3ccccc3c2)C(=O)N[C@@H](Cc2c[nH]c3ccccc23)C(=O)N[C@@H](CC(=O)O)C1=O [compound 1245] ({CH2CO}-[2Nal]WD[NHexGly]Y[Nle]NR[NMeNle][Ahp(2)]PVDCG-OH; thioether N-14)", "nM", 6.2],
  ["CCCCCCN1CC(=O)N[C@@H](Cc2ccc(O)cc2)C(=O)N[C@@H](CCCC)C(=O)N[C@@H](CC(N)=O)C(=O)N[C@@H](CCCNC(=N)N)C(=O)N(C)[C@@H](CO)C(=O)N[C@@H](CCCCC)C(=O)N2CCC[C@H]2C(=O)N[C@@H](C(C)C)C(=O)N[C@@H](CC(=O)O)C(=O)N[C@H](C(=O)NCC(=O)O)CSCC(=O)N[C@@H](Cc2ccc3ccccc3c2)C(=O)N[C@@H](Cc2c[nH]c3ccccc23)C(=O)N[C@@H](CC(=O)O)C1=O [compound 1259] ({CH2CO}-[2Nal]WD[NHexGly]Y[Nle]NR[NMeS][Ahp(2)]PVDCG-OH; thioether N-14)", "nM", 8]
]}

Okay, now this molecule:
Could you share which IC50 value was measured for CCCCCCN1CC(=O)N[C@@H](Cc2ccc(O)cc2)C(=O)N[C@@H](C(C)C)C(=O)NCC(=O)N[C@@H](CCCNC(=N)N)C(=O)N[C@@H](CC(C)C)C(=O)N[C@@H](CCCCC)C(=O)N2CCC[C@H]2C(=O)N[C@@H](C(C)C)C(=O)N[C@@H](CCCNC(=N)N)C(=O)N[C@H](C(=O)NCC(=O)O)CSCC(=O)N[C@@H](Cc2ccc3ccccc3c2)C(=O)N[C@@H](Cc2c[nH]c3ccccc23)C(=O)N[C@@H](CC(=O)O)C1=O [compound 1230] ({CH2CO}-[2Nal]WD[NHexGly]YVGRL[Ahp(2)]PVRCG-OH; thioether N-14) ? 5.7
